studySystem: iATPSnFR2.A95A.A119L.HaloTag-JFX650 (L1-VLVG, L2-ICV); cpSFGFP inserted in epsilon subunit of Bacillus subtilis PS3 F0-F1 ATPase; mutations A95A, A119L; SEQ ID N (Bacillus sp. PS3, UniProt P07678)
Construct: E. coli, Ni-NTA purified
Sequence (P07678 whole entry, stated change not applied): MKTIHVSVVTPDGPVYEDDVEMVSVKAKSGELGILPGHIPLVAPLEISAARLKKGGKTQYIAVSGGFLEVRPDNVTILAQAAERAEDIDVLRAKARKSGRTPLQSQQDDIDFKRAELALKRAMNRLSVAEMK
assayInfo: ATP/nucleotide titration, binding curve fits
recordedConditions: read-out: affinity for ADP; A95A.A119L; FIG. 1B, 5D
observationType: pKd
Interpret pKd as the negative base-10 log of the concentration measured in mol/L.

pKd recorded for this compound, `Nc1ncnc2c1ncn2[C@@H]1O[C@H](COP(=O)(O)OP(=O)(O)O)[C@@H](O)[C@H]1O` , is 2.28
